# TESTED_ON: Tyrosine-protein phosphatase YopH [Yersinia enterocolitica]
# ASSAY_PROCEDURE: potency against Yersinia YopH phosphatase – biochemical, 10-point dose range, dose response (AID 1261)
# MEASUREMENT_CONTEXT: YopH phosphatase enzymatic assay, IC50, 3 runs; inhibition; at 50 µM; stronger effect = higher value
Results filed as inconclusive are left out.
ASSAY_ENDPOINT: inhibition (%)
Give the value, in units of %, as a plain number.

Consider the worked cases shown below.
MOLECULE	RESULT_UNITS	RESULT_NUMBER
Nc1c(NCc2ccccc2F)c(=O)[nH]c(=O)n1Cc1ccccc1	%	33.1
CC(=O)c1ccc(NC2=C(N3CCOCC3)C(=O)c3ccccc3C2=O)cc1	%	30.4
O=C(c1ccco1)N1CCN(CC(=O)N2CCCc3c2c(=O)oc2ccc(O)cc32)CC1	%	-5.68
COC(=O)c1ccc(Cl)c(NC(=O)CN2CCN(Cc3ccccc3)CC2)c1	%	-9.15
O=C(NC(Cc1c[nH]c2ccccc12)c1nnc2n1CCCCC2)c1cccs1 (stereo unspecified)	%	0.82

Next molecule, inhibition to be filled in.
Task item: Reported inhibition, molecule N#Cc1ccccc1Cn1cc(C#N)c2ccccc21 : ____
Reply: -11.8

====

# TESTED_ON: Tyrosine-protein phosphatase YopH [Yersinia enterocolitica]
# ASSAY_PROCEDURE: potency against Yersinia YopH phosphatase – biochemical, 10-point dose range, dose response (AID 1261)
# MEASUREMENT_CONTEXT: YopH phosphatase enzymatic assay, IC50, 3 runs; inhibition; at 50 µM; stronger effect = higher value
Inconclusive results are not listed.
Entries and their measured inhibition follow.
Field format: number, assumed %, no unit text.

COMPOUND	inhibition / %
CC1=C(C)C(=O)C(CCCCC#CCCCC#CCO)=C(C)C1=O	0.676
COc1ccccc1-c1c(C)nn2c(N3CCCCCC3)cc(C)nc12	-1.28
COc1ccc(NC(=O)/C(=C/c2cccnc2)NC(=O)c2cccs2)cc1	-16.6
CCOc1ccc(C(=S)N2CCOCC2)cc1OC	-1.37

Task item: Query for Tyrosine-protein phosphatase YopH [Yersinia enterocolitica]: what inhibition does the record show for CCN(CC)CCCNC(=O)Cc1c(C(=O)O)n(C)c2ccccc12 ?
Reply: -8.3

Task item: // map CC(C(=O)N1CCCc2c1c(=O)oc1ccc(O)cc21)N1CCc2ccccc2C1 (stereo unspecified) to recorded inhibition (system: Tyrosine-protein phosphatase YopH [Yersinia enterocolitica])
Reply: 0.0785

Task item: API: value(readout=inhibition, system=Tyrosine-protein phosphatase YopH [Yersinia enterocolitica]) for record COCCCNC(=O)CC(NS(=O)(=O)c1ccc(F)cc1)c1ccc(OC)cc1 (stereo unspecified)
Reply: -10.7

====

# TESTED_ON: Tyrosine-protein phosphatase YopH [Yersinia enterocolitica]
# ASSAY_PROCEDURE: potency against Yersinia YopH phosphatase – biochemical, 10-point dose range, dose response (AID 1261)
# MEASUREMENT_CONTEXT: YopH phosphatase enzymatic assay, IC50, 3 runs; inhibition; at 50 µM; stronger effect = higher value
Results filed as inconclusive are left out.
ASSAY_ENDPOINT: inhibition (%)
Supply the numeric figure in %, leaving out any unit text.

Please review the entries below; each comes with its answer.
COMPOUND	TESTED_ON	RESULT_NUMBER
O=C(NC(C(=O)O)c1ccccc1)c1ccc(S(=O)(=O)N2CCOCC2)cc1 (stereo not drawn)	Tyrosine-protein phosphatase YopH [Yersinia enterocolitica]	-10.8
COc1ccc(-c2nnc(SCC(=O)c3cccs3)o2)c(OC)c1	Tyrosine-protein phosphatase YopH [Yersinia enterocolitica]	-10.6
c1ccc(-c2csc3ncnc(NCCCN4CCOCC4)c23)cc1	Tyrosine-protein phosphatase YopH [Yersinia enterocolitica]	-1.85
CCOC(=O)Oc1ccc2oc(=O)cc(C)c2c1	Tyrosine-protein phosphatase YopH [Yersinia enterocolitica]	-13.7
Cc1onc(-c2ccccc2)c1C(=O)NCc1ccccn1	Tyrosine-protein phosphatase YopH [Yersinia enterocolitica]	-11.6

Task item: Could you share which inhibition value was measured for Nc1cccc(C2=Nc3cccc4cccc(c34)N2)c1 ?
Reply: 75.9

Task item: // lookup inhibition for CC(=O)[C@H]1[C@@H]2C(=O)N(c3cccc(Cl)c3)C(=O)[C@@H]2[C@H]2c3ccccc3C=CN21
Reply: 5.01

Task item: I'd like to know its inhibition. The compound in question is Cc1cccc(OCCCCc2c(C)n[nH]c2C)c1
Reply: -10.5

====

# TESTED_ON: Tyrosine-protein phosphatase YopH [Yersinia enterocolitica]
# ASSAY_PROCEDURE: potency against Yersinia YopH phosphatase – biochemical, 10-point dose range, dose response (AID 1261)
# MEASUREMENT_CONTEXT: YopH phosphatase enzymatic assay, IC50, 3 runs; inhibition; at 50 µM; stronger effect = higher value
Results filed as inconclusive are left out.
ASSAY_ENDPOINT: inhibition (%)
Number only, in %; omit the unit.

Some molecules with recorded inhibition:
MOLECULE	RESULT_UNITS	RESULT_NUMBER
Cc1ccc(N2C(=O)[C@@H]3[C@H](C2=O)C2c4ccccc4C=CN2[C@@H]3C(=O)c2ccco2)cc1 (stereo not given in full)	%	-1.17
CSc1nsc(/C=C/Nc2ccc(Cl)cc2)c1C#N	%	-6.81
Cc1ccc2c(C)[nH]c(=O)cc2c1	%	0.968
O=S(=O)(c1ccc2ccccc2c1)N1CCC(c2nc(-c3ccncc3)no2)CC1	%	-14.8

Task item: For the record COc1cccc(-c2nc(CS(=O)(=O)CC(=O)N3CCc4ccccc4C3)c(C)o2)c1 , what value of inhibition is listed for Tyrosine-protein phosphatase YopH [Yersinia enterocolitica]?
Reply: -0.295

Task item: For Tyrosine-protein phosphatase YopH [Yersinia enterocolitica], provide inhibition of O=C(/C=C/c1ccc([N+](=O)[O-])cc1)OCC(=O)N1c2ccccc2Sc2ccccc21 please.
Reply: -1.56

Task item: Query inhibition on Tyrosine-protein phosphatase YopH [Yersinia enterocolitica] for CCOC(=O)c1c(C)oc2c1c(C=NCc1ccccn1)c(O)c1ccccc12
Reply: 2.53

Task item: Recorded inhibition for COC(=O)N(NC(=O)C(O)(CCC(C)C)CCC(C)C)c1ccccc1 with Tyrosine-protein phosphatase YopH [Yersinia enterocolitica], please?
Reply: 4.94

Task item: Tell me reported inhibition for COc1cc(NCCCCCCCN)c2ncccc2c1 , tested with Tyrosine-protein phosphatase YopH [Yersinia enterocolitica].
Reply: 56.5

Task item: I'm curious: which inhibition was measured for Cc1oc2ccccc2c1-c1cn2c(n1)SCC2 tested on Tyrosine-protein phosphatase YopH [Yersinia enterocolitica]?
Reply: -2.41

Task item: Quick check: inhibition on Tyrosine-protein phosphatase YopH [Yersinia enterocolitica], item O=C(NN=c1c(=O)c2ccccc2c1=O)c1ccccc1 ?
Reply: -14.5

====

# TESTED_ON: Tyrosine-protein phosphatase YopH [Yersinia enterocolitica]
# ASSAY_PROCEDURE: potency against Yersinia YopH phosphatase – biochemical, 10-point dose range, dose response (AID 1261)
# MEASUREMENT_CONTEXT: YopH phosphatase enzymatic assay, IC50, 3 runs; inhibition; at 50 µM; stronger effect = higher value
Inconclusive results are not listed.
Reported inhibition values for the following molecules.
Please respond with the number in % and leave the unit unwritten.

Answered examples (6):
MOLECULE	inhibition (%)
Cc1ccc(C(C[N+](=O)[O-])c2c(C)[nH]n(-c3ccccc3)c2=O)cc1 (centres undefined)	-20.8
CC(=O)OCCCNc1cc(SCc2ccco2)c2nonc2c1[N+](=O)[O-]	-2.61
C=CCOC(=O)C1=C(C)NC2(O)c3ccccc3C(=O)C12O (centres undefined)	24.6
Cc1ccc(C(=O)N2C(=S)C(c3ccc(F)cc3)=NC23CCN(C)CC3)cc1	-3.79
Cc1csc(N2CCc3ccccc32)n1	-9.56
Clc1ccc(C2=CSC3=Nc4cccc5cccc(c45)N23)cc1	13.3

Task item: For the molecule CCCNc1nc2c(c(=O)[nH]c(=O)n2C)n1Cc1ccc(F)cc1 , what inhibition is on record?
Reply: -11.6

Task item: Look up inhibition: CCC(=O)Nc1nonc1-c1nc2ccccc2n1CCC(C)C
Reply: -8.12

Task item: What inhibition value was documented for this molecule, O=C(O)c1ccccc1SCC(=O)N1c2ccccc2Sc2ccccc21 ?
Reply: -57.4

Task item: Report inhibition for COc1ccc(N2C(=O)[C@@H]3[C@H](C2=O)[C@H]2c4ccccc4C=CN2[C@@H]3C(C)=O)cc1 please.
Reply: -6.89

Task item: Which inhibition value is on record for O=C(CSc1ncn[nH]1)c1ccc2c(c1)OCO2 ?
Reply: -17.6

====

# TESTED_ON: Tyrosine-protein phosphatase YopH [Yersinia enterocolitica]
# ASSAY_PROCEDURE: potency against Yersinia YopH phosphatase – biochemical, 10-point dose range, dose response (AID 1261)
# MEASUREMENT_CONTEXT: YopH phosphatase enzymatic assay, IC50, 3 runs; inhibition; at 50 µM; stronger effect = higher value
Records with an inconclusive call do not appear.
Consider the following compounds and their measured inhibition readings.
Respond numerically; units are % and should not be typed.

COMPOUND	inhibition (%)
O=C1C(Nc2cccc(O)c2)=C(N2CCCCC2)C(=O)c2ccccc21	35.8

Task item: Item CC(=O)Nc1ccc(-c2nnc(SCC(=O)n3c4c(c5ccccc53)CCCC4)n2C)cc1 has what recorded inhibition?
Reply: -7.8

Task item: Query: inhibition; subject: CC1(C)COC(/C=C/c2ccc([N+](=O)[O-])cc2)=N1
Reply: -8.03

Task item: Any idea what its inhibition is? The compound is COC(=O)C1C(C(C)C)N(c2ccccc2)OC1(C)O (centres undefined)
Reply: -0.943
